meta.source: PubChem BioAssay AID485297

# assay name: qHTS Assay for Rab9 Promoter Activators; note: nearly all actives have a fitted effect of over 60% in size; note: potency is the fitted concentration of half-maximal effect
# measurement setup: Huh7 Rab9 promoter-luciferase reporter, luminescence, 24 h; series mostly up to 9.22 µM
About 9,100 (2.8%) of roughly 320,000 compounds were called active. Inconclusive results (about 3%) are left out. Many of the other results were omitted from the sample, so actives are more common in it than they were.
measure: Potency

[
  {
    "molecule": "C/C(=N\\Nc1cccc(C(=O)O)c1)c1ccc2c(c1)Nc1ccccc1S2",
    "observed": "3.16 µM (active)"
  },
  {
    "molecule": "CN(C)C(CNC(=O)c1cccc(C#N)c1)c1ccco1 (stereo unspecified)",
    "observed": "inactive"
  },
  {
    "molecule": "Cc1ccc(NC(=O)COC(=O)C2C3CC4OC(=O)C2C4C3)cc1Cl (stereo unspecified)",
    "observed": "inactive"
  },
  {
    "molecule": "CC1(C)NC(=O)N(CC(=O)N2CCN(S(=O)(=O)c3ccccc3F)CC2)C1=O",
    "observed": "inactive"
  },
  {
    "molecule": "CC(=O)Nc1ccc(S(=O)(=O)N(C)c2nc3ccccc3nc2Cl)cc1",
    "observed": "inactive"
  }
]

Would you kindly look at the next entry?
Query (molecule): `O=C(O)c1cccc(N2C(=O)Nc3ccccc3N2O)c1` ; field requested: Potency inactive

###

# assay name: qHTS Assay for Rab9 Promoter Activators; note: nearly all actives have a fitted effect of over 60% in size; for activation, negative = inhibition: % of control where 0% means no effect
# measurement setup: Huh7 Rab9 promoter-luciferase reporter, luminescence, 24 h; series mostly up to 9.22 µM
Hit rate of the full screen: of about 320,000 compounds, about 9,100 (2.8%) were called active. Another 3% or so got no clear call; they are omitted. Only a selection was taken, and actives are over-represented in it overall.
measure: activation, negative = inhibition

// below: answered compounds
[
  {
    "smi": "COc1ccc2c3c(c(=O)oc2c1)C1O[C@](CCCCN2C(=O)c4ccccc4C2=O)(Cc2c1ccc1ccccc21)O3",
    "measure": "activation, negative = inhibition",
    "observed": "-1.17% [at 1.84 µM] (inactive)"
  },
  {
    "smi": "O=C(Nc1ccncc1)c1ccc([N+](=O)[O-])cc1Cl",
    "measure": "activation, negative = inhibition",
    "observed": "1.06% [at 1.84 µM] (inactive)"
  },
  {
    "smi": "S=C(Nc1cccnc1)Nc1ccccn1",
    "measure": "activation, negative = inhibition",
    "observed": "-1.03% [at 1.84 µM] (inactive)"
  },
  {
    "smi": "COC(=O)c1cc(-c2cccs2)nc2ccccc12",
    "measure": "activation, negative = inhibition",
    "observed": "-3.27% [at 1.84 µM] (inactive)"
  },
  {
    "smi": "O=C(NCc1cccnc1)c1cccc(-c2cc3ccccc3oc2=O)c1",
    "measure": "activation, negative = inhibition",
    "observed": "-2.68% [at 1.84 µM] (inactive)"
  }
]

Which activation, negative = inhibition is reported for this compound? `O=C(NCCc1c[nH]c2ccccc12)c1cccc(Br)c1` -1.43% [at 1.84 µM] (inactive)

// activation, negative = inhibition lookup, key: `COc1cc(/C=C2\SC(=O)NC2=O)ccc1OCc1ccc(Cl)nc1` -1.24% [at 1.84 µM] (inactive)

###

# assay name: qHTS Assay for Rab9 Promoter Activators; note: nearly all actives have a fitted effect of over 60% in size
# measurement setup: Huh7 Rab9 promoter-luciferase reporter, luminescence, 24 h; series mostly up to 9.22 µM
The campaign covered roughly 320,000 compounds. About 9,100 (2.8%) were called active. Not shown: some 3% with an inconclusive outcome. The call rests on the fitted dose curve; in most records, active means well fitted activation curve with a large enough effect; inconclusive means small, poorly fitted or top-dose-only effect; inactive means no such curve, though single readings can be large or run the other way. This is one part of a sample in which actives are shown more often than they occur.
Give your call using only these classes: TRUE for active, FALSE for inactive

Past entries and their recorded results:
[
  {
    "molecule": "CCOc1ccc(S(=O)(=O)NCCC(=O)NCC2CCCO2)cc1 (stereo unspecified)",
    "qualitative label": "FALSE"
  },
  {
    "molecule": "O=C(O)c1cc(S(=O)(=O)Nc2ccc3cn[nH]c3c2)ccc1Br",
    "qualitative label": "FALSE"
  },
  {
    "molecule": "Nc1c(C(=O)Nc2ccc3c(c2)OCCO3)nnn1Cc1ccccc1",
    "qualitative label": "TRUE"
  }
]

Test call, this molecule: `CCc1ccc(NC(=O)Cn2nnc(C(=O)NCc3ccc4c(c3)OCO4)c2N)cc1` FALSE

Given `O=C(c1ccccc1)N1CCN(C(=O)N2CCCCC2)CC1` , state the outcome it received in this test. FALSE

###

# assay name: qHTS Assay for Rab9 Promoter Activators; note: nearly all actives have a fitted effect of over 60% in size
# measurement setup: Huh7 Rab9 promoter-luciferase reporter, luminescence, 24 h; series mostly up to 9.22 µM
Hit rate of the full screen: of about 320,000 compounds, about 9,100 (2.8%) were called active. Another 3% or so got no clear call; they are omitted. Calls come from the whole dose curve; as a rule, active = well fitted activation curve with a large enough effect; inconclusive = small, poorly fitted or top-dose-only effect; inactive = no such curve, though single readings can be large or run the other way. The sample holds actives, similar compounds and a random draw of the others, so the mix is not that of the screen.
Response enum: T for active, F for inactive

[
  {
    "molecule": "O=C(COC(=O)c1ccc2c(c1)OCCO2)NCc1ccccc1",
    "qualitative label": "F"
  }
]

For `Cc1ccnc(Nc2nc3ccccc3s2)n1` , what call appears in the results of this test? T

Hey, what did the test say about `CCN(CC)CCn1c2c(c(SCC(=O)Nc3nc4ccccc4s3)nc1=O)CCCC2` ? F

How did this test come out for `CCOC(=O)c1c(CNCc2ccccc2F)c2sc(C)cc2n1C` ? F

Test call for this molecule, please: `O=C(COC(=O)c1ccncc1)c1ccccc1` F

What did this assay record as the result for `CC(=O)NC12CC3CC(C1)CC(C(=O)N1CCN(S(=O)(=O)c4cccs4)CC1)(C3)C2` ? F

Recorded test call requested for `COc1ccc([C@H]2CC(=O)C=C(/C=C/c3ccccc3)C2)cc1` F

Hi, sorry to bother you, what did the test record for `CC(=O)Nc1cccc(C(=O)OCC(=O)c2ccc3c(c2)OCO3)c1` ? T

###

# assay name: qHTS Assay for Rab9 Promoter Activators; note: nearly all actives have a fitted effect of over 60% in size
# measurement setup: Huh7 Rab9 promoter-luciferase reporter, luminescence, 24 h; series mostly up to 9.22 µM
The campaign covered roughly 320,000 compounds. About 9,100 (2.8%) were called active. Another 3% or so got no clear call; they are omitted. Calls follow the shape of the dose curve; as a rule, active = well fitted activation curve with a large enough effect; inconclusive = small, poorly fitted or top-dose-only effect; inactive = no such curve, though single readings can be large or run the other way. For the sample, actives were picked, then their nearest neighbours and some compounds at random.
Return exactly one item of class 1 for active, class 0 for inactive

[
  {
    "compound": "COc1ccc(OC)c(NC(=O)c2cnn(-c3ccccc3Cl)c2NC(=O)c2ccco2)c1",
    "qualitative label": "class 0"
  },
  {
    "compound": "COc1ccccc1-n1ccnc1SCC(=O)NC(C)(C)C",
    "qualitative label": "class 0"
  },
  {
    "compound": "Cc1ccccc1CSCC(=O)NC(=O)NC(C)(C)C",
    "qualitative label": "class 0"
  },
  {
    "compound": "CCc1sc(C(=O)N2CCN(CC(=O)Nc3cccc(F)c3)CC2)cc1C",
    "qualitative label": "class 0"
  },
  {
    "compound": "CC(NC(=O)c1ccc(S(=O)(=O)Nc2ccccc2)cc1)c1ccc(S(N)(=O)=O)cc1 (stereo unspecified)",
    "qualitative label": "class 0"
  }
]

Look up the recorded call for `Cc1cccc(Nc2nc(-c3ccccc3)cs2)n1` in this test. class 1

Hi, sorry to bother you, what did the test record for `CC(=O)Nc1cccc(-c2csc(Nc3cccc(C)n3)n2)c1` ? class 1

Which result was noted for this compound in the test: `CCS(=O)(=O)Nc1cccc(-c2cc(-c3ccccc3)c3cc(C)ccc3n2)c1` class 0

Please share the test call associated with `CC(=O)Nc1ccc(-c2csc(NC=C3C(=O)OC(C)(C)OC3=O)n2)cc1` . class 0

Dear all, I need the recorded test outcome for `Cc1cccc(S(=O)(=O)CC(=O)Nc2nc(-c3ccccc3)cs2)c1` , thank you. class 0

In this assay, the call recorded for `O=C(CSc1ccccc1)Nc1cccc(S(=O)(=O)N2CCCCC2)c1` was what? class 0

###

# assay name: qHTS Assay for Rab9 Promoter Activators; note: nearly all actives have a fitted effect of over 60% in size
# measurement setup: Huh7 Rab9 promoter-luciferase reporter, luminescence, 24 h; series mostly up to 9.22 µM
Among all 320,000 compounds or so, about 9,100 (2.8%) were called active. Roughly 3% stayed inconclusive and do not appear here. The call rests on the fitted dose curve; in most records, active means well fitted activation curve with a large enough effect; inconclusive means small, poorly fitted or top-dose-only effect; inactive means no such curve, though single readings can be large or run the other way. The full list was thinned out, with actives kept by preference.
The reply should name one outcome from active, inactive

For this compound, state the assay outcome: `Cc1ccc(S(=O)(=O)N(NC2=NS(=O)(=O)c3ccccc32)C(=O)c2ccccc2)cc1` inactive

###

# assay name: qHTS Assay for Rab9 Promoter Activators; note: nearly all actives have a fitted effect of over 60% in size
# measurement setup: Huh7 Rab9 promoter-luciferase reporter, luminescence, 24 h; series mostly up to 9.22 µM
Out of some 320,000 compounds screened, about 9,100 (2.8%) were called active. Not shown: some 3% with an inconclusive outcome. Calls follow the shape of the dose curve; as a rule, active = well fitted activation curve with a large enough effect; inconclusive = small, poorly fitted or top-dose-only effect; inactive = no such curve, though single readings can be large or run the other way. The sample as a whole holds a higher share of actives than the screen did.
Can you answer with just one of these options? active, inactive

[
  {
    "compound": "CC1=NN(C(N)=S)C(=O)C1N=Nc1cc(Cl)ccc1Cl (stereo not drawn)",
    "qualitative label": "inactive"
  }
]

Recorded call for COc1ccc(C2=NOC(COC(=O)c3ccc4ccccc4n3)C2)cc1 (stereo not drawn) ? inactive

Which outcome was assigned to `O=C(Nc1ncccc1O)c1ccc(S(=O)(=O)N2CCCC2)cc1` in this test? inactive

Please state the recorded outcome for this compound: COc1ccccc1N1CCN(C(=O)C2Cc3ccccc3CN2C(=O)c2ccco2)CC1 (stereo not drawn) inactive

What is the recorded call for this compound in the test? `O=C(Nc1ncccc1O)c1ccc(S(=O)(=O)N2CCCCCC2)cc1` inactive

Hi team, can someone confirm the assay call for `Cc1ccnc(NC(=O)CCCOc2ccccc2)c1` ? inactive

Hi team, can someone confirm the assay call for `Cc1cccc2cc3c(N)c(C(=O)N4CCCc5ccccc54)sc3nc12` ? inactive

Recorded test outcome, item `COc1cc(SC)ccc1C(=O)Nc1cc(C)ccn1` active

In this assay, the call recorded for `Cc1ccn2cc(C(=O)NC3CCN(Cc4ccccc4)CC3)nc2c1` was what? inactive

How did this test come out for `O=C(Nc1ncccc1O)c1ccc(C(=O)c2ccccc2)cc1` ? active

Call for entry `COc1cccc(C2=CC(=O)C[C@H](c3ccc(F)cc3)C2)c1OC` : inactive

For `CC(=O)N1CCOc2ccc(S(=O)(=O)N3CCC(C(=O)Nc4ccccc4F)CC3)cc21` , which call appears in the assay record? inactive
